# target.entity: T1, His-tagged GRB2 (UniProt P62993 1-217)
# T1 construct: For the MST with DICER1^CT and AGO2 the text writes only GRB2; also called His-GRB2
# experiment.summary: ITC; 1.2 mM peptide titrated into 80 uM His-tagged GRB2; 25 C; 20 mM Tris-HCl pH 8, 150 mM NaCl, 1 mM beta-mercaptoethanol
# test.conditions: both partners purified
measured.quantity: pKd
By convention, pKd is the negative base-10 log of a molar concentration.

Field pKd (entry KLVLRYPHLPCLQVGQE (Argonaute 2 (AGO2), human, PAZ domain, residues 317-333; also called peptide spanning the proline-rich motif 323PHLP326) [PRM-containing peptide from the AGO2 PAZ domain (residues 317-333)] ) reads 5.37

These measurements were taken from paper PMC10276003.
